# tested-system: T1, RBFOX1 RRM (Homo sapiens, UniProt Q9NWB1 109-208)
# T1 sequence: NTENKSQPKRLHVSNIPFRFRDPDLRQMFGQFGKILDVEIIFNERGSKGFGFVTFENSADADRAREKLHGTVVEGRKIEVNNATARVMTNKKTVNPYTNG
# run-description: EMSA; HiTS-Eq, 1 nM pool, 10 min; buffer printed only for the single-RNA assays: 10 mM Tris pH 7.5, 150 mM NaCl, 3.4 mM EDTA, 0.001% NP-40, 30 C
# details: tags: His6 N-terminal (pET28a); label: 5' 32P
The full ranking holds about 16,000 sequences; the median of “ka relative to ugcaugu” is about 0.0091, and the highest 2% start at about 0.032. The full list was thinned out, with the highest values kept by preference.
Quick reference: binding signal of the listed items.
endpoint: binding signal

- GGGGUCA (DNA:RNA) RNA: GGGAGACCGGAAUUCAGAUUGUCCGGGGUCAUUAAAUCCCGUCGUAGCCACCA DNA 1: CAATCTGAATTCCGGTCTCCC DNA 2: TGGTGGCTACGACGGGATT: 0.0251 KA relative to UGCAUGU
- AGGCGUG (DNA:RNA) RNA: GGGAGACCGGAAUUCAGAUUGUCCAGGCGUGUUAAAUCCCGUCGUAGCCACCA DNA 1: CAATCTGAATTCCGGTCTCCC DNA 2: TGGTGGCTACGACGGGATT: 0.0157 KA relative to UGCAUGU
